Quick reference for growth among some compounds
# Test system: MDA-MB-231 breast
# Assay: NCI-60 one-dose screen, 48 h (100 = growth as untreated, 0 = no growth, -100 = all killed)
# Measurement Setup: 10 µM unless noted
Compounds without any hit were thinned out: in the full panel of roughly 83,000, 20% have a hit.

Compound: O=S1(=O)N(Cc2ccccc2)[C@@H](Cc2ccccc2)C2O[C@H]2[C@H](Cc2ccccc2)N1Cc1ccccc1 (some centres undefined)
growth, %: 24.2

Compound: CCOC(=O)c1ccc(N=Cc2sc(=O)[nH]c2O)cc1
growth, %: 95.5

Compound: CCCCCCc1cc2cc(-c3nc4ccccc4[nH]3)c(=Nc3ccccc3C)oc2cc1O
growth, %: 41.6

Compound: COC(=O)/C(CCC=C(C)C)=C1\[C@@H](OC(C)=O)C[C@@]2(C)[C@H]1C[C@@H](O)[C@H]1[C@@]3(C)CC[C@H](NCc4ccccc4)[C@@H](C)[C@@H]3CC[C@@]12C
growth, %: 63.6

Compound: COc1cccc2c1C=C1CCCCC3=Cc4c(OC)cccc4OC13O2
growth, %: 56.7

Compound: NC(=O)CSc1nc(-c2ccc(F)cc2)cc(-c2ccco2)n1
growth, %: 98.3

Compound: O=c1oc2ccc(I)cc2c(=O)n1-c1ccc(F)cc1F
growth, %: 33.3

Compound: CCOC(=O)c1c2c(n3cccc(Cl)c13)C(=O)c1ncccc1C2=O
growth, %: 24.9

Compound: COc1cccc(/C=C/C(=O)c2c(C)nc3ccccc3c2/C=C/c2ccccc2)c1OC
growth, %: 20.9
